# System: XF498
# Assay Protocol: NCI tumour cell line growth inhibition, 48 h
Calls of active or inactive are those of the source. Cut-off read from the data, not from the text of the source: active = GI50 up to about 1.1 µM and inactive = higher.
Outcome codes: 1.0 for active, 0.0 for inactive

{"Compound": "Nn1c(-c2cccc(Cl)c2)nc2ccccc2c1=O", "Classification": 0.0}
{"Compound": "CCOC(=O)C1(C/C=C(/C)Cl)CCCC1=O (stereo unspecified)", "Classification": 0.0}
{"Compound": "CCCc1cc(OC(=O)c2c(O)cc(OC)cc2CCC)cc(O)c1C(=O)O", "Classification": 0.0}
{"Compound": "CCCCCCCCCCCCCCNCC(OCC)OCC", "Classification": 0.0}
{"Compound": "CC1(C)CC(=O)C(C(=O)Nc2cccs2)=C(O)C1", "Classification": 0.0}
{"Compound": "CCOC(=O)CC(C)C1(C=O)CCCCC1=O (stereo unspecified)", "Classification": 0.0}
{"Compound": "O=C(NC1C=Nc2ccc([N+](=O)[O-])cc2NC1=O)c1cc(Cl)cc([N+](=O)[O-])c1 (stereo unspecified)", "Classification": 0.0}
{"Compound": "O=C(CCc1nnc2s/c(=C\\c3ccc(Cl)c(Cl)c3)c(=O)n12)Nc1ccc(Cl)c(Cl)c1", "Classification": 0.0}
{"Compound": "N#CC(/C(CCC(=O)Nc1ccc(Cl)cc1)=N/NC(=O)c1cc2ccccc2cc1O)c1ccccc1 (stereo unspecified)", "Classification": 0.0}
{"Compound": "C[Si](C)(C)c1ccc(-c2sc(-c3ccc([Si](C)(C)C)s3)c3c2C[Si]2(C3)Cc3c(-c4ccc([Si](C)(C)C)s4)sc(-c4ccc([Si](C)(C)C)s4)c3C2)s1", "Classification": 0.0}
{"Compound": "C/N=C(\\N=c1/ss/c(=N\\C)n1C)N(C)C.[O-][Cl+3]([O-])([O-])O", "Classification": 0.0}
{"Compound": "CC1CC2(CCC1OCc1ccccc1)OCCO2 (stereo unspecified)", "Classification": 0.0}
{"Compound": "CSc1nc(Cl)c(Br)c(Sc2nc(N)nc3nc[nH]c23)n1", "Classification": 0.0}
{"Compound": "COc1cc2c(cc1O)CCN[C@@]21CS[C@H]2c3c(OC(C)=O)c(C)c4c(c3C(COC1=O)N1C2C2c3c(cc(C)c(OC)c3O)CC([C@@H]1O)N2C)OCO4 (stereo partly specified)", "Classification": 1.0}
{"Compound": "COc1ccc2cc3[n+](cc2c1OC)CCc1cc(O)c(O)cc1-3", "Classification": 0.0}
{"Compound": "Cc1ccc(N2C(=O)C3CSCN3C2=O)cc1 (stereo unspecified)", "Classification": 0.0}
{"Compound": "COC(=O)C1C(=O)NC2(C)CC1c1ccccc1O2 (stereo unspecified)", "Classification": 0.0}
{"Compound": "COC(=O)C(CCS(=O)(=O)CC(=O)C(=O)Nc1cccc(C(C)=O)c1)C(=O)OC", "Classification": 0.0}
{"Compound": "COc1cc([C@H]2c3[nH]c4ccccc4c3C[C@H]3COC(=O)N32)cc(OC)c1O", "Classification": 1.0}
{"Compound": "N#CN=C(NCCO)NCCO", "Classification": 0.0}
{"Compound": "COC(=O)/C(=C/c1ccc(OC)cc1)C(C(=O)O)=C1CCCC1", "Classification": 0.0}

====

# Test system: T47D
# Assay Protocol: NCI tumour cell line growth inhibition, 48 h
Active and inactive are the calls of the source. Cut-off read from the data, not from the text of the source: active = GI50 up to about 1.1 µM and inactive = higher.
Below, each entry is listed with its recorded GI50.
Result Type: GI50

{"Compound": "COC(=O)N/N=C(\\c1ccccc1)c1ccc(OC)cc1", "Result Type": "GI50", "Reported Value": "> 100 µM (inactive)"}
{"Compound": "C=C(C)C1CCC2(C)C1CCC1(C)C2CCC2C3(C)C4OC(OC4=O)C(C)(C)C3CCC21C (stereo not given)", "Result Type": "GI50", "Reported Value": "64.6 µM (inactive)"}
{"Compound": "CCN(CC)CCNC(=O)c1nn(-c2ccc(Cl)cc2)c2c1CCc1cc(OC)ccc1-2", "Result Type": "GI50", "Reported Value": "4.3 µM (inactive)"}
{"Compound": "COc1cc(OC)c(OC)cc1/C=C/c1ccccn1", "Result Type": "GI50", "Reported Value": "> 10 µM (inactive)"}
{"Compound": "O=C1O/C(=C\\c2ccc(O)c(Br)c2)C(c2ccc(O)cc2)=C1Cl", "Result Type": "GI50", "Reported Value": "58.3 µM (inactive)"}
{"Compound": "O=P(O)(O)c1ccc2c(c1)OCCOCCOCCOCCO2", "Result Type": "GI50", "Reported Value": "> 100 µM (inactive)"}
{"Compound": "COC(=O)[C@@H](COC(=O)/C=C/c1ccc(OC(C)=O)c(OC(C)=O)c1)NC(=O)/C=C/c1ccc(OC(C)=O)c(OC(C)=O)c1", "Result Type": "GI50", "Reported Value": "11.1 µM (inactive)"}
{"Compound": "CC1(C)C2CCC1(CC(=O)O)C(Cl)C2 (stereo not given)", "Result Type": "GI50", "Reported Value": "> 100 µM (inactive)"}
{"Compound": "O=C(Oc1ccc2c(c1)CN(Cc1ccccc1)CO2)c1ccccc1", "Result Type": "GI50", "Reported Value": "21.7 µM (inactive)"}
{"Compound": "COC(=O)c1c[nH]c(=O)[nH]c1=O [ISOOROTIC ACID METHYL ESTER]", "Result Type": "GI50", "Reported Value": "> 100 µM (inactive)"}

====

# Test system: SW-620
# Assay Protocol: NCI tumour cell line growth inhibition, 48 h
Activity calls are given as the source filed them. No stated cut-off is given here; in the data, active = GI50 up to about 1.1 µM and inactive = higher.

{"Compound": "S=C(/N=C1/NCC(CN2CCN(c3ccccc3)CC2)O1)Nc1ccccc1 (stereo unspecified)", "Target": "SW-620", "GI50": "52.7 µM (inactive)"}
{"Compound": "CC(=O)OC1CCC2(C)C3CCC4(C)C(c5ccc(=O)oc5)CC5OC54C3CCC2(O)C1 (stereo unspecified)", "Target": "SW-620", "GI50": "1.21 µM (inactive)"}
{"Compound": "C=C1C[C@@H](O)[C@@H](Br)C(C)(C)[C@@]12C=CC(=O)CC2", "Target": "SW-620", "GI50": "> 100 µM (inactive)"}
{"Compound": "O=C(O)CNC(=O)c1ccccc1O [SALICYLURIC ACID]", "Target": "SW-620", "GI50": "> 100 µM (inactive)"}
{"Compound": "O=[PH](O)c1cc2c3ccccc3ccc2c2ccccc12", "Target": "SW-620", "GI50": "> 100 µM (inactive)"}
{"Compound": "Cc1cccc2[s+]snc12", "Target": "SW-620", "GI50": "24.2 µM (inactive)"}
{"Compound": "CN1Cc2cc3cc4c(cc3nc2N(C)C1)OCCO4", "Target": "SW-620", "GI50": "> 100 µM (inactive)"}
{"Compound": "O=[N+]([O-])c1ccc2c(c1)Cc1cc(/N=C/c3ccc4c(c3)OCO4)ccc1-2", "Target": "SW-620", "GI50": "> 100 µM (inactive)"}
{"Compound": "NC(=O)Cn1c(=O)[nH]c(=O)c2[nH]cnc21", "Target": "SW-620", "GI50": "> 100 µM (inactive)"}
{"Compound": "CC1CC(=O)Nc2ccc(/N=N/N(C)C)cc2N1C=O (stereo unspecified)", "Target": "SW-620", "GI50": "> 100 µM (inactive)"}
{"Compound": "C/C(=N\\N=C(\\N)OB(F)F)c1ccccn1", "Target": "SW-620", "GI50": "> 100 µM (inactive)"}

====

Measured GI50 values are reported for all entries that follow.
# System: COLO 205
# Assay Protocol: NCI tumour cell line growth inhibition, 48 h
Calls of active or inactive are those of the source. Cut-off read from the data, not from the text of the source: active = GI50 up to about 1.1 µM and inactive = higher. Square brackets hold non-standard residues; d marks the D form. Peptide text beside a SMILES is read from it. * marks the point of attachment. Phe(4-NO2) = N[CH](Cc1ccc([N+](=O)[O-])cc1)C(=O)O; Cbz = O=C(OCc1ccccc1)*

{"Molecule": "CC(C)=CCC/C(C)=C\\CC/C(C)=C/CO", "GI50": "40.1 µM (inactive)"}
{"Molecule": "CCOC(=O)CC(C)C1(C=O)CCCCC1=O (configuration not stated)", "GI50": "29.3 µM (inactive)"}
{"Molecule": "CCOC(=O)Nc1ccc2c(c1)N(C(=O)CCN(CC)CC)c1ccccc1S2 [ETHACIZINE]", "GI50": "20.5 µM (inactive)"}
{"Molecule": "CC(C)N(C(=O)C12C3C4C5C3C1(C(=O)N(C(C)C)C(C)C)C5C42)C(C)C (configuration not stated)", "GI50": "> 44.5 µM (inactive)"}
{"Molecule": "COCCOCOC(C)(C)[C@H](CCOC(C)=O)O[Si](c1ccccc1)(c1ccccc1)C(C)(C)C", "GI50": "3.44 µM (inactive)"}
{"Molecule": "COc1cc(OC)c(OC)cc1/C=C/c1ccccn1", "GI50": "> 10 µM (inactive)"}
{"Molecule": "C=CCN1COc2c(cc3c4c(cccc24)C(=O)O3)C1", "GI50": "17.9 µM (inactive)"}
{"Molecule": "COc1ccc2c(c1)Oc1cc(O)ccc1[C@H]2c1ccccc1C(=O)NC(C)c1ccccc1 (some centres not stated)", "GI50": "17.1 µM (inactive)"}
{"Molecule": "CCOc1ccc(/C(C=O)=C(\\Cl)c2ccc(OC)cc2)cc1", "GI50": "> 51.5 µM (inactive)"}
{"Molecule": "O=C(CC1(O)C(=O)Nc2ccc(Br)cc21)c1ccc(Cl)cc1 (configuration not stated)", "GI50": "> 100 µM (inactive)"}
{"Molecule": "CC[C@@]12CCCN3CC[C@]4(c5cccc(OC)c5N(C(C)=O)[C@@H]4CC1)[C@H]32 [ASPIDOSPERMINE]", "GI50": "> 100 µM (inactive)"}
{"Molecule": "CCOc1ccc(NC(=O)c2c(N/N=C/c3ccc(OC)cc3)nc(=O)[nH]c2C)cc1", "GI50": "> 100 µM (inactive)"}
{"Molecule": "CCCC[C@H]1CCN2C[C@@H](O)[C@@H](O)[C@H]2[C@@H]1O", "GI50": "> 100 µM (inactive)"}
{"Molecule": "COS(C)(=O)=O [METHANESULFONIC ACID METHYL ESTER]", "GI50": "> 2 µM (inactive)"}
{"Molecule": "Cc1ccc(NC(=O)CCC/C(CC(=O)c2ccc(Br)cc2)=N/NC(=O)CC#N)cc1", "GI50": "> 100 µM (inactive)"}
{"Molecule": "CC(=O)c1cc2c(s1)C(=O)c1ccsc1C2=O", "GI50": "19.1 µM (inactive)"}
{"Molecule": "Cn1cc2c3ccccc3nc-2c2ccccc21 [ISOCRYPTOLEPINE]", "GI50": "1.46 µM (inactive)"}
{"Molecule": "CCOC(=O)CCC(NC(=O)OCc1ccccc1)C(=O)NC(CCC(=O)OCC)C(=O)NC(CCC(=O)OCC)C(=O)NC(CCC(=O)OCC)C(=O)NC(CCC(=O)OCC)C(=O)NC(Cc1ccc([N+](=O)[O-])cc1)C(=O)NC(CCC(=O)OCC)C(=O)NC(CCC(=O)OCC)C(=O)NC(CCC(=O)OCC)C(=O)NC(CCC(=O)OCC)C(=O)NC(CCC(=O)OCC)C(=O)OCC (configuration not stated) (Cbz-E(OEt)E(OEt)E(OEt)E(OEt)E(OEt)[Phe(4-NO2)]E(OEt)E(OEt)E(OEt)E(OEt)E(OEt)-OEt; configuration not given here)", "GI50": "> 50 µM (inactive)"}
{"Molecule": "COC(=O)/C(=C/c1ccc(OC)cc1)C(C(=O)O)=C1CCCC1", "GI50": "> 100 µM (inactive)"}
{"Molecule": "CCOC(=O)c1oc2ccc(OC)c3c2c1CCC3", "GI50": "> 100 µM (inactive)"}
{"Molecule": "CC(=O)OCC1OC(n2c(=O)[nH]c(=O)c3sccc32)C(Br)C1OC(C)=O (configuration not stated)", "GI50": "> 100 µM (inactive)"}
{"Molecule": "CCOC(=O)C(C)NC(=O)NC12CC3CC(CC(F)(C3)C1)C2 (configuration not stated)", "GI50": "41.7 µM (inactive)"}

Each recorded value in this set is attributed to ChEMBL document CHEMBL1201862.
